Origin of the recorded values: PubChem BioAssay

ASSAYED_SYSTEM: Alpha-bungarotoxin (Bungarus multicinctus)
EXPERIMENT_DESCRIPTION: alpha-bungarotoxin binders on microarray, profiling panel, artefact control for SMM control protein annotation, biochemical, small-molecule microarray, Alexa647 label, 635/667 nm fluorescence (AID 1117)
REPORTED_CONDITIONS: alpha-BTX-A647 binding fluorescence, higher = more signal

# MOLECULE, composite z-score
data = [
    ("COC1(C)CN(Cc2ccccc2Br)[C@H](/C=C/c2ccccc2)[C@H](Cc2ccccc2)O1 (stereo not given in full)", -0.0462),
    ("CCOC(=CC(=O)OC)CC(O)c1cccc(Cl)c1 (stereo not given)", -0.259),
    ("COCCCNC(=O)[C@]1(CCC(=O)OC(C)(C)C)N=C(c2ccc(OCCCO)cc2)O[C@@H]1c1ccccc1", 1.6),
    ("O=C(O)[C@H](Cc1ccccc1)n1cc(-c2ccccn2)nn1", 0.35),
    ("CC(C)CN1C(=O)[C@@]2(c3ccc([N+](=O)[O-])cc3)CC(=O)N(CC34CC5CC(CC(C5)C3)C4)[C@@H]2c2ccc(CO)cc21", 0.578),
    ("COc1ccc(C#Cc2ccc3c(c2)[C@]2(C(=O)N3)[C@H](C(=O)N3CCc4cc(OC)c(OC)cc4C3)[C@H]3C(=O)O[C@H](c4ccccc4)[C@H](c4ccccc4)N3[C@@H]2c2ccc(O)cc2)cc1", 1.04),
    ("COC(=O)[C@@]1(Cc2ccc(OC)cc2)[C@H]2c3cc(C(=O)N(C)C)n(Cc4nc5ccccc5[nH]4)c3C[C@H]2CN1C(=O)c1ccccc1", 1.26),
    ("COC(=O)[C@@]1(Cc2ccc(OC)cc2)[C@H]2c3cc(C(=O)N4CCCC4)n(CCc4cc5ccccc5[nH]4)c3C[C@H]2CN1C(=O)c1ccccc1", 1.21),
    ("[N-]=[N+]=Nc1ccccc1[C@@H]1OC(c2ccc(OCCCO)cc2)=N[C@]1(CCS(=O)(=O)c1ccccc1)C(=O)NCCN1CCOCC1", 0.737),
    ("CC(C)C(O)C1C=CC2C(=O)N(C)C(=O)C2N1Nc1ccccc1 (stereo not given)", 1.25),
    ("COc1ccc(NN2C(C(O)c3ccco3)C=CC3C(=O)N(C4CCCCC4)C(=O)C32)cc1 (stereo not given)", 0.916),
    ("[N-]=[N+]=Nc1ccccc1[C@H]1OC(c2ccc(OCCCO)cc2)=N[C@@]1(CCS(=O)(=O)c1ccccc1)C(=O)N1CCCCC1", 2.21),
    ("COc1ccc([Si](C)(C)[C@@H]2[C@@H](CCO)O[C@]3(C(=O)N(Cc4cccc(N5C(=O)c6cccc7cccc5c67)c4)c4ccccc43)[C@H]2C)cc1", 0.578),
    ("CN(C)CCCNC(=O)[C@@H]1c2ccccc2C(=O)N(Cc2ccc(OC(F)(F)F)cc2)[C@H]1c1ccc(CO)cc1", 0.243),
    ("COc1ccc([Si](C)(C)[C@H]2[C@H](CCO)O[C@@]3(C(=O)N(Cc4cccc(N5CCCCC5=O)c4)c4ccccc43)[C@@H]2C)cc1", 1.22),
    ("C=C(CCCC)/C(=C/C[C@@H](OC(C)=O)c1ccc(CO)o1)c1cc(C(=O)OC)ccc1OC", 1.28),
    ("CCOC(=O)C1=C[C@@H](c2ccccc2)N(S(=O)(=O)c2ccc(C)cc2)[C@H]1c1cccc(Cl)c1", 2.25),
    ("COc1cc2c(cc1OC)CN(C(=O)[C@@H]1[C@H]3C(=O)O[C@H](c4ccccc4)[C@H](c4ccccc4)N3[C@H](c3ccccc3OCCO)[C@@]13C(=O)Nc1ccc(C#CC4(O)CCCCCC4)cc13)CC2", 1.56),
    ("O=C1OC[C@@H](c2ccccc2)N2CC(/C=C/c3ccccc3)=CC12 (stereo not given in full)", -0.273),
    ("CN(C)CCCNC(=O)[C@@H]1c2ccccc2C(=O)N(CC23CC4CC(CC(C4)C2)C3)[C@H]1c1ccc(CO)cc1", 1.65),
    ("Cc1ccc(S[C@]2(C(=O)NCC(C)C)CC(=O)N(Cc3ccccc3Cl)[C@@H]2c2ccc(CO)cc2I)cc1", 1.48),
    ("CCCCN1CC=CC23O[C@@H]4C=CCOC(=O)[C@@H]4[C@H]2C(=O)N(CCCO)[C@@H]3C1=O (stereo not given in full)", -1.34),
    ("C=CC[C@H](OC(=O)Nc1ccc(OC)cc1)c1ccc(O)c2ccccc12", 1.78),
    ("CC[C@@H]1[C@H]2C3C(=O)N(CC)C(=O)C3CC(=O)[C@H]2[C@H](c2ccc(C)cc2)N1S(=O)(=O)c1ccc(C)cc1 (stereo not given in full)", 0.484),
    ("C=C[C@@H](COC(C)=O)NS(=O)(=O)c1ccc(Br)cc1", 0.225),
    ("O=C1c2ccccc2[C@@]2(Cc3ccccc3N(C3CC3)C2=O)[C@H](c2ccc(CO)cc2)N1C1CCCCC1", 0.233),
    ("CO[C@H]1O[C@H](CO)[C@@H](OC(=O)Nc2ccc(C(F)(F)F)cc2)[C@H](OC(=O)Nc2ccc3c(c2)OCO3)[C@H]1OC(=O)Nc1ccc2c(c1)OCO2", 0.648),
    ("CC(C)c1ccc(NN2C(C(O)c3ccco3)C=CC3C(=O)N(c4ccccc4)C(=O)C32)cc1 (stereo not given)", 2.69),
    ("CCCNC(=O)[C@@]1(c2ccc([N+](=O)[O-])cc2)CC(=O)N(C2CCCCC2)[C@@H]1c1ccc(CO)cc1I", 1.6),
    ("Cc1ccc(S[C@]2(C(=O)NC(C)C)CC(=O)N(C3Cc4ccccc4C3)[C@@H]2c2ccc(CO)cc2I)cc1", -0.365),
]

###

ASSAYED_SYSTEM: Left-right determination factor 2 (Homo sapiens) (UniProt O00292)
Sequence (O00292 whole entry, looked up): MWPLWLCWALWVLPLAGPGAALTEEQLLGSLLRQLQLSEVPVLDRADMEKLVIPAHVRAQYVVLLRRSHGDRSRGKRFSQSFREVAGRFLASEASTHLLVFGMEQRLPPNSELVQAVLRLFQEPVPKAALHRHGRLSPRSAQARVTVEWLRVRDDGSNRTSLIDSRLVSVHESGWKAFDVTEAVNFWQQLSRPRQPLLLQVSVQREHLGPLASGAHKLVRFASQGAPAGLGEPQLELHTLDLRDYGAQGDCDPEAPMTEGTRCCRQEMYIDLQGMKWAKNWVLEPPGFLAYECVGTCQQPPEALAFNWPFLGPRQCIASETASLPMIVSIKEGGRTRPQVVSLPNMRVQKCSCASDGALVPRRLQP
EXPERIMENT_DESCRIPTION: LEFTY2 binders on small-molecule microarrays, primary screen, biochemical, small-molecule microarray, 635 nm fluorescence scan (AID 1110)
REPORTED_CONDITIONS: LEFTY2 binding, higher = more signal
Answer No if composite z-score is under 0.5, and Yes if it is 0.5 or more.

# COMPOUND, GROUP_LABEL
rows = [
    ("[N-]=[N+]=Nc1ccccc1[C@@H]1OC(c2ccc(OCCCO)cc2)=N[C@]1(CCS(=O)(=O)c1ccccc1)C(=O)NCCN1CCOCC1", "No"),
    ("CCOC(=O)C1=CC[C@@H](c2ccccc2C(F)(F)F)N(S(=O)(=O)c2ccc(C)cc2)C1", "Yes"),
    ("CN(C)CCCCNC(=O)[C@H]1C[C@H]2C(=O)N[C@@H](CCCCN(C)C)C(=O)N2[C@H]1c1cccc(OCCO)c1", "Yes"),
    ("CC(C)C(CO)N1C(=O)[C@]2(C)C3C(=O)OCCC/C=C\\[C@H]3OC23C=CCN(c2ccc(Cl)cc2)C(=O)[C@@H]13 (stereo not given in full)", "No"),
    ("C=CCOC(=O)[C@@H]1[C@H]2C(=O)O[C@H](c3ccccc3)[C@H](c3ccccc3)N2[C@H](c2ccc(OCCOC(=O)[C@H]3C[C@H]4C(=O)N[C@@H](CCCCNC(C)=O)C(=O)N4[C@H]3c3cccc(OCCO)c3)cc2)[C@@]12C(=O)Nc1ccc(I)cc12", "Yes"),
    ("CC(C)(C)OC(=O)CC[C@]1(C(=O)O)N=C(c2ccc(OCCCO)cc2)O[C@H]1c1ccccc1", "No"),
    ("O=C(CCCCCCC(=O)Nc1ccccc1)N/N=C/c1ccccc1", "No"),
    ("COC(=O)[C@@]1(Cc2ccc(OC)cc2)[C@H]2c3cc(C(=O)N4CCCC4)n(CCc4cc5ccccc5[nH]4)c3C[C@H]2CN1C(=O)c1ccccc1", "No"),
    ("COc1cc(CO)cc(I)c1O[C@H]1C=C(C(=O)NCCO)C[C@@H](N(CC2CCCCC2)C(=O)c2ccc(C(F)(F)F)cc2)[C@@H]1O", "No"),
    ("CC(C)OC(=O)CC(=O)CC(O)c1cccc(C#N)c1 (stereo not given)", "No"),
    ("C=CC1c2cc(O)c(OC)cc2CCN1Cc1sc2ccccc2c1Cl (stereo not given)", "No"),
    ("[N-]=[N+]=Nc1ccccc1C[C@@]1(C(=O)O)N=C(c2ccc(OCCCO)cc2)O[C@@H]1c1ccccc1", "No"),
    ("NCCCCCNC(=O)[C@@H]1C[C@@H]2C(=O)N[C@@H](CCCCN)C(=O)N2[C@@H]1c1cccc(OCCO)c1", "Yes"),
    ("O=c1cccc(-c2ccc(C(F)(F)F)cc2)o1", "No"),
]

###

EXPERIMENT_DESCRIPTION: E. coli acrAB mutant growth effects, primary screen, E. coli filamentation inducers, strain DRC39, OD650, 24 h (AID 1178);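 note: growth measured as culture turbidity by optical density at 650 nm; test concentration not given here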
REPORTED_CONDITIONS: higher = more signal, called active from +8 up or from −8 down
Listing of entries alongside the reported z-score.
ENDPOINT_NAME: z-score

# COMPOUND, EXPERIMENTAL_RESULT
data = [
    ("CO[C@H]1O[C@H](CO)[C@@H](OC(=O)Nc2ccc(C(F)(F)F)cc2)[C@H](OC(=O)Nc2ccc3c(c2)OCO3)[C@H]1OC(=O)Nc1ccc2c(c1)OCO2", 0.436),
    ("COCCCNC(=O)[C@]1(CCC(=O)OC(C)(C)C)N=C(c2ccc(OCCCO)cc2)O[C@@H]1c1ccccc1", -0.286),
    ("C=C(C(=O)CC[C@H](OC(=O)c1cccnc1)c1ccc(CO)o1)C(C)C", -0.645),
    ("COCCOC(=O)N1C(=O)[C@@]2(c3cc(C#CC4(O)CCCCCC4)ccc31)[C@H](C(N)=O)[C@H]1C(=O)O[C@H](c3ccccc3)[C@H](c3ccccc3)N1[C@@H]2c1ccc(O)cc1", -0.0029),
    ("Cc1ccc(C(C)CC(O)C2C=CC3C(=O)N(c4ccccc4)C(=O)C3N2Nc2ccc(C(C)C)cc2)o1 (centres undefined)", -0.751),
    ("COCCCNC(=O)[C@]1(Cc2ccccc2CN=[N+]=[N-])N=C(c2ccc(OCCCO)cc2)O[C@@H]1c1ccccc1", 1.18),
    ("COCC(=C=CC[C@H](O)c1ccc(OCCO)cc1)C[C@H](O)COCc1ccccc1", 0.979),
    ("C=C(COC)/C(=C/C[C@@H](OC(=O)c1ccncc1)c1cccc(OCCO)c1)c1cnc2ccccc2c1", -0.451),
    ("CO[C@H]1O[C@H](CO)[C@@H](OC(=O)Nc2ccc(Oc3ccccc3)cc2)[C@H](OC(=O)Nc2ccccc2-c2ccccc2)[C@@H]1OC(=O)Nc1ccccc1-c1ccccc1", -0.325),
    ("CCOC(=O)C[C@H]1[C@H](OC(=O)Cc2ccc3c(c2)OCO3)[C@@H](NC(=O)Cc2ccc(OC)cc2)c2cc(OCCCO)ccc2N1C(=O)c1ccccc1", -0.296),
    ("CCCNC(=O)[C@@]1(c2ccc([N+](=O)[O-])cc2)CC(=O)N(C2CCCCC2)[C@@H]1c1ccc(CO)cc1I", 0.549),
    ("COCCOC(=O)N1C(=O)[C@@]2(c3cc(C#CC4=CCCCC4)ccc31)[C@H](c1ccccc1OCCO)N1[C@H](c3ccccc3)[C@H](c3ccccc3)OC(=O)[C@H]1[C@@H]2C(=O)N1CCc2cc(OC)c(OC)cc2C1", -0.398),
    ("CCCN1C(=O)[C@]2(Cc3ccccc3)N=C(c3ccc(OCCCO)cc3)O[C@@H]2c2ccccc21", 0.94),
    ("COCC(=C=CC[C@H](O)c1cccc(OCCO)c1)C[C@H](O)c1ccccn1", 1.38),
]
